PROCEDURE_TEXT: Conversion of the azolium compounds to ketoconazole / itraconazole on incubation in human plasma
Format: in vitro ADME
EXPERIMENTAL_PARAMETERS: remaining parent compound, 10µg/ml, 37°C, incubation time 10 min, read-out: Observed (%) Comp. I
ENDPOINT: remaining at 10 min

| MOLECULE | ENDPOINT | RESULT |
| --- | --- | --- |
| CC(=O)N1CCN(c2ccc(OCC3COC(Cn4cc[n+](Cc5ccc(OC(=O)C(C)(C)C)cc5)c4)(c4ccc(Cl)cc4Cl)O3)cc2)CC1 (stereo not shown) | remaining at 10 min | < 5% |
